This collection of values is drawn from patent US8952014B2.

- TGT: human CGRP receptor (Homo sapiens, UniProt O60894+Q16602)
- Construct: SK-N-MC membranes (˜20 μg protein) are incubated for 180 minutes at ambient temperature; endogenous in cells
- Sequence (Q16602 23-461): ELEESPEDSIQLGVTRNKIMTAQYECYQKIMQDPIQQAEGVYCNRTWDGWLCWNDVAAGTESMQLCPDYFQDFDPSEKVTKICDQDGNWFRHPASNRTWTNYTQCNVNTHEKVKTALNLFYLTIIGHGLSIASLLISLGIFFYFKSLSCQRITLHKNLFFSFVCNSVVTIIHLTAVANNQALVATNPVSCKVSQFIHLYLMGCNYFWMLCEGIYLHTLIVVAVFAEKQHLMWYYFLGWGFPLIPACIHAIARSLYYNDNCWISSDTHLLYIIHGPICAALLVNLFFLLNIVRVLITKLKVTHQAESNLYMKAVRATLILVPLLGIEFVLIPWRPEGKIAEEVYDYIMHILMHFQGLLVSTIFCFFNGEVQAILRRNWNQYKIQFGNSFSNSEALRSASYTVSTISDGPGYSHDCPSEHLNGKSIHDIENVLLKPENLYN
- Sequence (O60894 27-148): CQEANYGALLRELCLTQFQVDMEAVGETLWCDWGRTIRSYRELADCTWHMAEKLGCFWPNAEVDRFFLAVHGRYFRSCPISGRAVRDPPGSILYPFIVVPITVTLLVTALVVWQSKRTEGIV
- PROTOCOL TEXT: Binding studies with SK-N-MC cells (125I-CGRP displacement from membranes)
- SETTINGS: 50 pM 125I-iodotyrosyl-CGRP, 180 min, ambient temperature
In plain terms, low Ki, meaning strictly below 20 nM, gives YES, and everything else gives NO.

Prompt: Say whether its Ki is strictly beneath 20 nM. Entry: COCc1nc2c(C)cc(Oc3cc(N4CCC(N5CCc6cc(OC)ccc6NC5=O)CC4)ncn3)cc2[nH]1
Response: YES

Prompt: Say whether its Ki is strictly beneath 20 nM. Entry: COc1ccc2c(c1)CCN(C1CCN(c3cc(Oc4cc(C)c5nc(C6CC6)[nH]c5c4)ncn3)CC1)C(=O)N2
Response: YES

Prompt: Say whether its Ki is strictly beneath 20 nM. Entry: COc1nc2cc(Oc3cc(N4CCC5(CC4)OC(=O)Nc4ncccc45)ncn3)cc(C)c2[nH]1
Response: YES

Prompt: Say whether its Ki is strictly beneath 20 nM. Entry: Cc1cc(Oc2cc(N3CCC4(CC3)OC(=O)Nc3ncccc34)ncn2)cc2[nH]c([C@@H]3CCCO3)nc12
Response: YES

Prompt: Say whether its Ki is strictly beneath 20 nM. Entry: Cc1nc2cc(Nc3cc(Nc4ccc5c(c4)CC4(C5)C(=O)Nc5ncccc54)ncn3)cc(C)c2[nH]1 (centres unmarked)
Response: NO

Prompt: Say whether its Ki is strictly beneath 20 nM. Entry: COc1ccc2c(c1)CCN(C1CCN(c3cc(Oc4ccc(N)c(C)c4)ncn3)CC1)C(=O)N2
Response: NO

Prompt: Say whether its Ki is strictly beneath 20 nM. Entry: COc1ccc2c(c1)CCN(C1CCN(c3cc(Nc4cc(C)c5c(c4)oc(=O)n5C)ncn3)CC1)C(=O)N2
Response: NO

Prompt: Say whether its Ki is strictly beneath 20 nM. Entry: Cc1nc2c(C)cc(Oc3cc(N4CCC(n5c(=O)[nH]c6ncccc65)CC4)ncn3)cc2[nH]1
Response: YES
